// data source = PubChem BioAssay (NCATS)

# TEST PROTOCOL: BET inhibitor-based combinations targeting novel dependencies in MECOM-rearranged (r) AML: AML-191 cell line (AID 2202236; also: nearly all actives have a fitted effect of over 35% in size)
# ASSAY CONDITIONS: AML-191 viability, CellTiter-Glo luminescence, 48 h; series mostly up to 46 µM
Records with an inconclusive call do not appear. Calls of active or inactive are those of the source. Calls follow the shape of the dose curve; as a rule, active = well fitted inhibition curve with a large enough effect; inconclusive = small, poorly fitted or top-dose-only effect; inactive = flat fitted curve, though single readings scatter.
Classes used: T = active, F = inactive

{"MOLECULE": "COc1ccc(-c2ccc3cc(C(=O)O)ccc3c2)cc1C12CC3CC(CC(C3)C1)C2", "ASSIGNED CLASS": "F"}
{"MOLECULE": "CN1CCc2c(c3ccccc3n2Cc2ccc(C(=O)NO)cc2)C1", "ASSIGNED CLASS": "T"}
{"MOLECULE": "CC(Cc1ccc(O)c(O)c1)(NN)C(=O)O (stereo not given)", "ASSIGNED CLASS": "F"}
{"MOLECULE": "O=C(NCC(=O)N1CCCC1)Nc1ccc2cnccc2c1", "ASSIGNED CLASS": "F"}
{"MOLECULE": "NCCc1ccc(O)c(O)c1", "ASSIGNED CLASS": "F"}
{"MOLECULE": "CNC(=O)c1cc(Oc2ccc(NC(=O)Nc3cc(C(C)(C)C)nn3-c3ccc4ncccc4c3)c(F)c2)ccn1", "ASSIGNED CLASS": "T"}
{"MOLECULE": "CNC(=O)c1c(-c2ccc(F)cc2)oc2cc(N(CCO)S(C)(=O)=O)c(C3CC3)cc12", "ASSIGNED CLASS": "F"}
{"MOLECULE": "CC(=O)Oc1ccccc1C(=O)Nc1ncc([N+](=O)[O-])s1", "ASSIGNED CLASS": "T"}
{"MOLECULE": "CC(C)OC(=O)C1=CN(C(=O)c2ccc(F)c(F)c2)CC(C)(C)c2c1[nH]c1ccccc21", "ASSIGNED CLASS": "F"}
{"MOLECULE": "CN(NC(=O)CC(=O)NN(C)C(=S)c1ccccc1)C(=S)c1ccccc1", "ASSIGNED CLASS": "T"}

====

# TEST PROTOCOL: BET inhibitor-based combinations targeting novel dependencies in MECOM-rearranged (r) AML: MV-4-11 cell line (AID 2202233); also: nearly all actives have a fitted effect of over 45% in size
# ASSAY CONDITIONS: MV-4-11 AML viability, CellTiter-Glo luminescence, 48 h; series mostly up to 46 µM
Records with an inconclusive call do not appear. The source made the active and inactive calls. Calls come from the whole dose curve; as a rule, active = well fitted inhibition curve with a large enough effect; inconclusive = small, poorly fitted or top-dose-only effect; inactive = no such curve, though single readings can be large or run the other way.
Possible outcomes: Y = active, N = inactive

{"COMPOUND": "O=C(O)c1ccc2c(c1)nc(Nc1cccc(Cl)c1)c1ccncc12", "ASSIGNED CLASS": "Y"}
{"COMPOUND": "C[C@]12CCC(=O)C=C1CC[C@@H]1[C@@H]2[C@@H](O)C[C@@]2(C)[C@H]1CC[C@]2(O)C(=O)CO", "ASSIGNED CLASS": "N"}
{"COMPOUND": "CNC(=O)c1c(-c2ccc(F)cc2)oc2cc(N(CCO)S(C)(=O)=O)c(C3CC3)cc12", "ASSIGNED CLASS": "N"}
{"COMPOUND": "CCOc1cc(C(=O)N2CCC(N3CCN(C)CC3)CC2)ccc1Nc1ncc2c(n1)N(C1CCCC1)c1ccccc1C(=O)N2C", "ASSIGNED CLASS": "Y"}
{"COMPOUND": "N#CCNC(=O)c1ccc(-c2ccnc(Nc3ccc(N4CCOCC4)cc3)n2)cc1", "ASSIGNED CLASS": "Y"}
{"COMPOUND": "NC(=NCc1ccccc1)NC(=O)c1nc(Cl)c(N)nc1N", "ASSIGNED CLASS": "Y"}
{"COMPOUND": "COc1cc(N2CCN(C(C)=O)CC2)ccc1Nc1ncc(Cl)c(Nc2ccc(N3CCN(C(C)=O)CC3)cc2OC)n1", "ASSIGNED CLASS": "Y"}
{"COMPOUND": "Cc1cc(SCc2sc(-c3ccc(C(F)(F)F)cc3)nc2C)ccc1OCC(=O)O", "ASSIGNED CLASS": "N"}
{"COMPOUND": "CC(N[C@H]1CCCC[C@H]1NC(=O)c1ccc(Cl)cc1)c1cccc2ccccc12 (some centres undefined)", "ASSIGNED CLASS": "Y"}
